- System: MS2 coat protein
- assayDetails: apparent KD of MS2 coat protein; designed switch direction (-1 OFF switch, 1 ON switch): -1; higher = weaker reporter binding
- settings: input ligand: microRNA oligo, concentration not stated
quantityName: apparent KD of MS2 coat protein (nM)
Answers are plain numbers, in nM.

Examples with answers:
macromoleculeSequence	apparent KD of MS2 coat protein, nM
CCCAGUUAGAGAGGAUAUCUUACAUGAGGAUCACCCAUGUAAUAAAUGAGGAUUUCGGGUGUCUAAGAGAAGGCUCGGAUAGGC [Ostracism 29 - Jieux - Exclusion NG 2] (Eterna round: R96, puzzle: Exclusion NG 2)	15.3
UUGUUAUAUGUAGGAUAUGCAUAUUAUUAUUAUGCAGAAGGACAUGAGGAUCACCCAUGUAUAUUAUUAUUAUAUGUUAUAUAU [Title] (Eterna round: R96, puzzle: Exclusion NG 1)	19.5

Fill in apparent KD of MS2 coat protein for each of the 3 sequences listed.
1. UUUUAACAUGAGGAUCACCCAUGUGAGGAUAUCGAAAUUUAUAUUAAUAUUUAUAUUACGAGAAGGCACAUUUU [JMF 58] (Eterna round: R96, puzzle: Exclusion 1)
2. CUAGGGCACAAUUAAGCGCCCUAACAUGAGGAUCACCCAUGUCAGGAUAUGUAGGCAAAGACCCUACAGAAGGGACAUGUCCUA [Artileza] (Eterna round: R96, puzzle: Exclusion NG 3)
3. ACAUGAGGAUCACCCAUGUUUUUCGGGUACUCUUUUUACAGCAAGGAUAUGCAUUAUUUUUUUACGCAGAAGGUGCUUUACGUC [JR_ExcNG3_Sub066] (Eterna round: R96, puzzle: Exclusion NG 3)

(A)
1: 55.3; 2: 46.3; 3: 116
